Where do these numbers come from? They come from PubChem BioAssay (NCI).

- assay.details: NCI Yeast Anticancer Drug Screen. Data for the rad14 strain (AID 159);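 also: 0% = growth of vehicle-treated control cultures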
- measurement.conditions: S. cerevisiae rad14 strain growth inhibition; at 1.2 µM; active compounds read high
This is part of a sample that, as a whole, favours compounds with a hit. Of some 79,000 tested, about 15% had one in any assay.
experimental.readout: growth inhibition (%)
Please reply with the bare figure in % and do not write the unit itself.

[in] GET /values?readout=growth inhibition&item= `N#CN=Nc1cc(Cl)c(N=NC#N)cc1Cl`
[out] 1

====

- assay.details: NCI Yeast Anticancer Drug Screen. Data for the sgs1 strain (AID 173);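 also: 0% = growth of vehicle-only control cultures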
- measurement.conditions: S. cerevisiae sgs1 mutant, at 11.0 µM, active compounds read high
This is part of a sample that, as a whole, favours compounds with a hit. Of some 79,000 tested, about 15% had one in any assay.
Classify as follows. Reported growth inhibition greater than or equal to 40%: label 1. Reported growth inhibition below: label 0.

Worked set:
CCCCCCCCCCCC1=C(O)C(=O)C=C(O)C1=O ... label 1
CN(C)CCOc1ccc2c(c1)C/C(=C/c1ncc([N+](=O)[O-])n1C)C2=O ... label 1

# ---- query compound ----
[in] Decide: is the reported value of growth inhibition for `CC(=O)Cc1ccc[cH-]1.[Fe+2].c1cc[cH-]c1` equal to or greater than 40%?
[out] label 0
